Assay: in vivo
Conditions: male, Wistar, rat, iv, 0.5 mg/kg
outcomeMeasure: Cmax at 24 h (ng/mL)

[
  {
    "structureSmilesString": "O=C(O)c1cc(-c2ccc(-c3cc(CO)on3)cc2)c2ccc(-c3ccc(C(F)(F)F)cc3)cc2c1",
    "recordedValue": 359
  }
]

###

Assay: in vivo
Settings: male, Wistar, rat, iv, 0.5 mg/kg

[
  {
    "structureSmilesString": "O=C(O)c1cc(-c2ccc(-c3cc(CO)on3)cc2)c2ccc(-c3ccc(C(F)(F)F)cc3)cc2c1",
    "Vd at 24 h, L/kg": 2.09
  }
]

###

Test: in vivo
Details: male, Wistar, rat, iv, 0.5 mg/kg
outcomeMeasure: AUC(0-t) at 24 h (ng·h/mL)

[
  {
    "molecule": "O=C(O)c1cc(-c2ccc(-c3cc(CO)on3)cc2)c2ccc(-c3ccc(C(F)(F)F)cc3)cc2c1 [Compound 32]",
    "recordedValue": 234
  }
]
